meta.source: paper PMC9312238

Measured zone of inhibition at 20 µM accompanies every entry in the list below.
# Tested on: Escherichia coli
# Assay Name: Agar diffusion assay, E. coli
# Format: cell-based
# Test Settings: Escherichia coli; inhibition zone diameter, six-mm disks soaked with 20 μM of compound; read-out: E. coli IZD (mm)
Report the figure in mm without appending any unit label.

# Smiles Notation, System Under Test, Assay Readout, Unit Spec, Quantitative Readout
rows = [
    ("CC(=O)Nc1ccc([Se]CC(=O)Nc2ccccc2)cc1", "Escherichia coli", "zone of inhibition at 20 µM", "mm", 6),
    ("O=C(C[Se]c1ccc(N2C(=O)c3ccccc3C2=O)cc1)Nc1ccccc1", "Escherichia coli", "zone of inhibition at 20 µM", "mm", 6),
]

Now look at this one.
Qu. Need zone of inhibition at 20 µM of "O=C(C[Se]c1ccc(N2C(=O)C=CC2=O)cc1)Nc1ccccc1" , thanks.
Ans. 5

----------
Measured melting point accompanies every entry in the list below.

Previously resolved entries follow.
# Compound, melting point
rows = [
    ("Nc1ccc([Se]CC(=O)Nc2ccccc2)cc1 [Compound 4]", "121 to 122 °C"),
    ("N#CC(C#N)=NNc1ccc([Se]CC(=O)Nc2ccccc2)cc1 [Compound 7]", "177 to 179 °C"),
    ("C[Se]c1ccc(NC(=O)C=CC(=O)O)cc1 [Compound 15]", "171 °C"),
    ("CN(C)C=Nc1ccc([Se]CC(=O)Nc2ccccc2)cc1 [Compound 20]", "118 to 120 °C"),
    ("O=C(O)CCC(=O)Nc1ccc([Se]CC(=O)Nc2ccccc2)cc1 [Compound 11]", "163 to 165 °C"),
]

Now look at this one.
Qu. Need melting point of C[Se]c1ccc(NC(=O)CCC(=O)O)cc1 [Compound 16] , thanks.
Ans. 169.6 °C
